Target: T1, His-tagged CEACAM1 (human, UniProt P13688 35-428)
T1 construct: 45 kDa SPR analyte; also called CEACAM1-HIS; CEACAM1 analyte
T1 sequence: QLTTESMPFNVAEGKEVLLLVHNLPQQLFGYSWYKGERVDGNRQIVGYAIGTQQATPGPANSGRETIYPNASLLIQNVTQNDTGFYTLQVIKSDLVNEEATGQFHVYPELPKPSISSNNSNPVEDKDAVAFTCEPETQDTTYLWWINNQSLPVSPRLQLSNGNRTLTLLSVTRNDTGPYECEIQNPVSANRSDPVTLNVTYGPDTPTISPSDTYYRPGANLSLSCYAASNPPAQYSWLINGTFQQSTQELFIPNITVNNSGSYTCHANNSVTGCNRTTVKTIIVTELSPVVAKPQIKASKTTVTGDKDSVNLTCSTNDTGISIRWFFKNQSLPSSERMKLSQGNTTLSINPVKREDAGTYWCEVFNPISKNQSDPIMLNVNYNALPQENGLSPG
Assay: SPR single-cycle, supernatant IgG captured
outcomeMeasure: koff (s⁻¹)
Give your result in s⁻¹ as a bare value.

The cases that follow already have their koff on record.
binder: VH1/CP08G09 (antibody, IgG4, V domains shown, IgG4 (S241P), kappa; also called Parent VH/CP08G09) VH: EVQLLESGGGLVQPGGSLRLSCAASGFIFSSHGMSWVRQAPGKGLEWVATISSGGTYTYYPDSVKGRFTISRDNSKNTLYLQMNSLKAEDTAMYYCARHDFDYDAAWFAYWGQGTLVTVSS VL: EIVLTQSPATLSLSPGERATLSCRANSAVSYMYWYQQKPGQAPRPWIYLTSNRATGVPARFSGSGSGTDYTLTISSLEPEDFAVYYCQQWTAFPPTFGQGTKLEIK
scaleUnit: s⁻¹
koff: 0.057
//
binder: CP09E05/CP08E05 (antibody, IgG4, V domains shown, IgG4 (S241P), kappa) VH: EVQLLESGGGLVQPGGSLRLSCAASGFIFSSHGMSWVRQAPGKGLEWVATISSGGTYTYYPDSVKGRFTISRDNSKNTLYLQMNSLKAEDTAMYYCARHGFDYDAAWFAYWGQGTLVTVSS VL: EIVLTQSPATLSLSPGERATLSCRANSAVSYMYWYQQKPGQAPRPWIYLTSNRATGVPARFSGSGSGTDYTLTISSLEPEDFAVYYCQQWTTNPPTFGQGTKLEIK
scaleUnit: s⁻¹
koff: 0.02
//
binder: VH1/CP08E01 (antibody, IgG4, V domains shown, IgG4 (S241P), kappa; also called Parent VH/CP08E01) VH: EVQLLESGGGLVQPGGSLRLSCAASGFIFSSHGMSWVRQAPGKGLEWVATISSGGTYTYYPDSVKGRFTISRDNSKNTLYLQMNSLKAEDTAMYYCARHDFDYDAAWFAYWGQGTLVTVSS VL: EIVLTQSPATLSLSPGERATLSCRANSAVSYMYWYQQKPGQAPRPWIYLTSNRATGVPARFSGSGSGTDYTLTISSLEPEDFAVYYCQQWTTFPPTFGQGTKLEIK
scaleUnit: s⁻¹
koff: 0.053
//
binder: CP09C02/CP08F05 (antibody, IgG4, V domains shown, IgG4 (S241P), kappa) VH: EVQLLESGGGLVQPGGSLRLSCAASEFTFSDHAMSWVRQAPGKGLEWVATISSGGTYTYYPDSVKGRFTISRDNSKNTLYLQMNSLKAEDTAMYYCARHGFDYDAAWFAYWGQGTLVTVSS VL: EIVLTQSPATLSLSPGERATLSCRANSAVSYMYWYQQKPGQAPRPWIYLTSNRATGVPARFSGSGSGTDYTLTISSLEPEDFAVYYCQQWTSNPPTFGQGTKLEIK
scaleUnit: s⁻¹
koff: 0.011
//
binder: CP09B03/CP08D02 (antibody, IgG4, V domains shown, IgG4 (S241P), kappa) VH: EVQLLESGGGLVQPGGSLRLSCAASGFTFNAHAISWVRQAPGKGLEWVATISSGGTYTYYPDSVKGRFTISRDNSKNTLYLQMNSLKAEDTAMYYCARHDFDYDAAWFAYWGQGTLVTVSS VL: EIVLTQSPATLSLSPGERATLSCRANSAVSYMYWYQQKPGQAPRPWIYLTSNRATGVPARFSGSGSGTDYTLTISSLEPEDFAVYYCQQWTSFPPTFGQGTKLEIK
scaleUnit: s⁻¹
koff: 0.059

Return value of koff for input CP09B03/CP08E05 (antibody, IgG4, V domains shown, IgG4 (S241P), kappa) VH: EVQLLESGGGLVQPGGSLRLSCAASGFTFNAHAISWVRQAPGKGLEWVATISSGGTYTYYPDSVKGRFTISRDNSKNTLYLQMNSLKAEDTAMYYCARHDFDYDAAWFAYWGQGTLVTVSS VL: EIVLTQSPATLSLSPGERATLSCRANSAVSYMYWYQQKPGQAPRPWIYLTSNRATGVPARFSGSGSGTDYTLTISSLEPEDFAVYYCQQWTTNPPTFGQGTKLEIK , no commentary.
0.01

Return value of koff for input CP08H03/CP08F05 (antibody, V domains shown, IgG4 (S241P), kappa) VH: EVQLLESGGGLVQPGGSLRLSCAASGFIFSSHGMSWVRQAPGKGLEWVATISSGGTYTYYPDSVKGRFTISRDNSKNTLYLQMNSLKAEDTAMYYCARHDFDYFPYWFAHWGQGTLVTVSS VL: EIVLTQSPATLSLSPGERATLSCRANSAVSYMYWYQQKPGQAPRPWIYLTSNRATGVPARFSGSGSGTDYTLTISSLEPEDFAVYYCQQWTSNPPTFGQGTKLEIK , no commentary.
0.0074

Return value of koff for input CP09C02/CP08E05 (antibody, IgG4, V domains shown, IgG4 (S241P), kappa) VH: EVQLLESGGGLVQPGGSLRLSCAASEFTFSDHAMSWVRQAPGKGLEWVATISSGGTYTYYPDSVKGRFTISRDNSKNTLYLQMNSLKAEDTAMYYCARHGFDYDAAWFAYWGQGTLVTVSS VL: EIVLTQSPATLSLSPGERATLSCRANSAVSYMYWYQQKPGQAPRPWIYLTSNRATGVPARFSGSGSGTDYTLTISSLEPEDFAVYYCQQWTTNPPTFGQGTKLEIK , no commentary.
0.0075

Return value of koff for input CP09B03/Vκ8 S29A (antibody, IgG4, V domains shown, IgG4 (S241P), kappa) VH: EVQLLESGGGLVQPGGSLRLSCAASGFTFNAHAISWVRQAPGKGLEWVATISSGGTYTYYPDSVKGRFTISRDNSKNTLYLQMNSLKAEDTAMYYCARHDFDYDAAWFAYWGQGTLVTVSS VL: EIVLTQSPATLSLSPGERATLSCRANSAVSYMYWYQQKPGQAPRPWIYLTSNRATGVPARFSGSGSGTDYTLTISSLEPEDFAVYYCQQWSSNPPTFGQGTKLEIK , no commentary.
0.052
